Target: T1, human IL-17F (human, UniProt Q96PD4 31-163, biotinylated with Sulfo-NHS-LC-Biotin in the AlphaScreen assays only)
T1 construct: also called hIL-17F; recombinant human IL-17F
T1 sequence: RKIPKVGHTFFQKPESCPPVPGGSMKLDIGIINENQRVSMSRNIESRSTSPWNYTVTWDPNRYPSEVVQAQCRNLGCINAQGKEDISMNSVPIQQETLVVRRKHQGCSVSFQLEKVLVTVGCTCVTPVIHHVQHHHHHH
Experiment: SPR Biacore, hIL-17F on chip; purified protein
Readout kind: koff (s⁻¹)
Unit s⁻¹ implied. Number only.

Examples with answers:
INSERT INTO results (binder, readout_kind, reported_value) VALUES
  ('13E02 (VHH, Class 4 Nanobody (cross-reactive: anti-IL-17A, IL-17F and IL-17A/F); also called IL17MS13E02; not shown: c-myc, His6 tag) VHH: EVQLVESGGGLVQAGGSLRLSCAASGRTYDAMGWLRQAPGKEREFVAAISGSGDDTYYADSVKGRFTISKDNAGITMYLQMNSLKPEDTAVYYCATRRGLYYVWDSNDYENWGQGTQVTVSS', 'koff', 0.0036),
  ('10A04 (VHH, Class 4 Nanobody (cross-reactive: anti-IL-17A, IL-17F and IL-17A/F); not shown: c-myc, His6 tag) VHH: EVQLVESGGGLVQPGGSLRLSCAASGFTFSSYWMYWVRQAPGKGLEWISALAPGGGNRYYAESVNGRFTISRDNAKNSLYLQMNSLKSEDTAVYYCAKDHNVGYRTGEYDYGGQGTQVTVSS', 'koff', 0.0048),
  ('08A08 (VHH, Class 3 Nanobody (anti-IL-17F); not shown: c-myc, His6 tag) VHH: EVQLVESGGGLVQAGGSLRLSCAASGRTFRPYRMGWFRRAPGKAREFVTLISWSSGRTSYADSVKGRFTISRDSAKNAVYLQMDNLKPEDTAVYFCAVDLSGDAVYDSWGQGTQVTVSS', 'koff', 0.048);

The record that follows has no koff shown yet.
response.value for 13B03 (VHH, Class 4 Nanobody (cross-reactive: anti-IL-17A, IL-17F and IL-17A/F); also called IL17MS13B03; not shown: c-myc, His6 tag) VHH: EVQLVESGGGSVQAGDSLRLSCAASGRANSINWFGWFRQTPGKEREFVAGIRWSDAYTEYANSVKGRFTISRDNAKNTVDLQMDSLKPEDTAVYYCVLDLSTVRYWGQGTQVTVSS (field: koff) = 0.0058

From: patent US20210130452A1
